src = patent US10647721B2

- Test system: γ-secretase
- assay comment: Cellular γ-secretase assay (inhibition of Aβ42 secretion, AlphaLisa)
- Assay type: cell-based
- details: human neuroglioma H4 cells overexpressing human APP695 Swedish double mutation, 24 hr compound incubation
- Method: Cellular γ-Secretase Assay […] After incubation at 37° C., 5% CO2, the supernatant was subjected to quantification of secreted Aβ42 by the means of an AlphaLisa assay kit (Human Amyloid beta 1-42 Kit: Cat # AL203C, Perkin Elmer). […] The assay plate was then read on a Paradigm AlphaLisa Reader using the build-in program with excitation at 680 nm and emission at […]. […]
recorded metric: EC50 (nM)

[
  {
    "cpd smiles": "COc1cc(Nc2nc3n(n2)CCCN3c2ccccc2)ccc1-n1cnc(C)n1",
    "EC50 [nM]": 94.7
  },
  {
    "cpd smiles": "COc1cc(Nc2nc3n(n2)CCCN3c2ccc(F)cc2)ccc1-c1cnc(C)o1",
    "EC50 [nM]": 12.6
  },
  {
    "cpd smiles": "COc1cc(Nc2nc3n(n2)CCN3c2ccc(C(F)(F)F)cc2)ccc1-n1cnc(Cl)c1",
    "EC50 [nM]": 65.4
  },
  {
    "cpd smiles": "Fc1ccc(N2CCCn3nc(Nc4ccc(-n5cnc(Cl)n5)c(F)c4)nc32)cc1F",
    "EC50 [nM]": 102
  },
  {
    "cpd smiles": "COc1cc(Nc2nc3n(n2)CCCN3c2ccc(F)c(F)c2)ccc1-n1cnc(C)n1",
    "EC50 [nM]": 14.2
  },
  {
    "cpd smiles": "COc1cc(Nc2nc3n(n2)CCCCN3c2ccc(F)c(F)c2)ccc1-n1cnc(Cl)c1",
    "EC50 [nM]": 22.4
  }
]

(a) Cc1ncn(-c2ccc(Nc3nc4n(n3)CCCN4c3ccc(F)c(F)c3)cc2C#N)n1
(b) Fc1ccc(N2CCCn3nc(Nc4ccc(-n5cncn5)c(F)c4)nc32)cc1F
(c) Cc1ncc(-c2ncc(Nc3nc4n(n3)CCCN4c3ccc(F)cc3)cc2F)o1
(d) COc1cc(Nc2nc3n(n2)CCCN3c2ccc(F)c(F)c2)ccc1-n1cnc(Cl)c1
**Q:** Please put the entries in order of rising EC50. To answer, write out the labels according to the requested order.
**A:** d, c, a, b
(d: 8.3 nM, c: 17.5 nM, a: 25.1 nM, b: 89.9 nM)
